Test system: Desulfovibrio vulgaris
Assay: Log10 reduction of viable anaerobic bacteria in high-TDS buffer after biocide contact
Assay type: cell-based
Settings: contact time 24 hours; TDS 30,000 mg l^-1; pH 8 phosphate buffer, room temperature; versus control; ppm active per example; 5 = complete kill
# reported Log10 Reduction Anaerobes; entries follow
Just the number, please.

INPUT: Endpoint output: Log10 Reduction Anaerobes of ClC=CC[N+]12CN3CN(CN(C3)C1)C2.[Cl-] [Example 19] . Value?
OUTPUT: 1

INPUT: Return reported Log10 Reduction Anaerobes; argument: CCCCCCCCCCCCCC[P+](CCCC)(CCCC)CCCC.[Cl-] [Example 17]
OUTPUT: 5

INPUT: Using the record for ClC=CC[N+]12CN3CN(CN(C3)C1)C2.[Cl-] [Example 20] , report its Log10 Reduction Anaerobes.
OUTPUT: 3

INPUT: Could you share which Log10 Reduction Anaerobes value was measured for CCCCCCCCCCCCCC[P+](CCCC)(CCCC)CCCC.[Cl-] [Example 18] ?
OUTPUT: 5
